Study System: Prostaglandin G/H synthase 2 (Homo sapiens, UniProt P35354)
Sequence (P35354 whole entry): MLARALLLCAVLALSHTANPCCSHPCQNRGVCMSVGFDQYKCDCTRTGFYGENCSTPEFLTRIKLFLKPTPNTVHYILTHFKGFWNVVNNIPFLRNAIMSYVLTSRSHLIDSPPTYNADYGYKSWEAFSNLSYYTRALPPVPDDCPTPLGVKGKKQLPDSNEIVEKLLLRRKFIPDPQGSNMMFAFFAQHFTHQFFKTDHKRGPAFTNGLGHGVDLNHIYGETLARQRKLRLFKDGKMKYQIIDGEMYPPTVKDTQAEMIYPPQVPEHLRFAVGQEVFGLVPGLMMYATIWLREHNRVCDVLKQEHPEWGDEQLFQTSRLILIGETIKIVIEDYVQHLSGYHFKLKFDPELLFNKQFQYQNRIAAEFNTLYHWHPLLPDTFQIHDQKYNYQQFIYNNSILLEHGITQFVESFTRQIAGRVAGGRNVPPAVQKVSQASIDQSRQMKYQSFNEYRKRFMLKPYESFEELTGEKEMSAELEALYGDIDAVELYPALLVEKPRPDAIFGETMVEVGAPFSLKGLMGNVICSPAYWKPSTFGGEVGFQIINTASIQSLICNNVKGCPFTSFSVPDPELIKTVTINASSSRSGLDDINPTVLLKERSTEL
Listing of pIC50 toward Prostaglandin G/H synthase 2 (Homo sapiens, UniProt P35354), each taken from a published source.
The quantity pIC50 is defined as the negative base-10 logarithm of the molar concentration.

Query: Find pIC50 (Prostaglandin G/H synthase 2 (Homo sapiens, UniProt P35354)) for the entry Cc1nc(C2CCCCC2)c(-c2ccc(S(N)(=O)=O)c(O)c2)o1
Result: 4.71

Query: Test system Prostaglandin G/H synthase 2 (Homo sapiens, UniProt P35354); read-out pIC50; what value for CC/C(=C(\c1ccccc1)c1ccc(NS(C)(=O)=O)cc1)c1ccccc1 ?
Result: 5.74

Query: For Prostaglandin G/H synthase 2 (Homo sapiens, UniProt P35354), provide pIC50 of O=C(COc1cc(O)c2c(=O)cc(-c3ccccc3)oc2c1)OCc1cc(-c2ccc(F)cc2)n(-c2ccccc2)n1 please.
Result: 5.60

Query: Query for Prostaglandin G/H synthase 2 (Homo sapiens, UniProt P35354): what pIC50 does the record show for CS(=O)(=O)c1ccc(-c2nc(SCCN(O)C(N)=O)nn2-c2ccc(Br)cc2)cc1 ?
Result: 6.82

Query: Param readout = pIC50; param system = Prostaglandin G/H synthase 2 (Homo sapiens, UniProt P35354); param query = C=C(C)[C@@H]1CC[C@]2(C)CC[C@]3(C)[C@H](CCC4[C@@]5(C)[C@H](O)C[C@H](OC(C)=O)C(C)(C)[C@@H]5CC[C@]43C)[C@@H]12 (some centres undefined) ; response: value
Result: 3.27

Query: API: value(readout= pIC50, system= Prostaglandin G/H synthase 2 (Homo sapiens, UniProt P35354), query= Cc1ccc(C2CC(c3ccc(C)c(C)c3)=NN2C2=NC(=O)CS2)cc1 (centres undefined) )
Result: 5.92

Query: For Prostaglandin G/H synthase 2 (Homo sapiens, UniProt P35354), provide pIC50 of C/C(=C\c1ccc(C(F)(F)F)cc1)c1ccc(O)c(O)c1 please.
Result: 5.76

Query: Under Prostaglandin G/H synthase 2 (Homo sapiens, UniProt P35354): pIC50 value of COC(=O)c1ccccc1Nc1c(Cl)ccc(C)c1Cl ?
Result: 5.40

* * *

Study System: Prostaglandin G/H synthase 2 (Homo sapiens, UniProt P35354)
Sequence (P35354 whole entry): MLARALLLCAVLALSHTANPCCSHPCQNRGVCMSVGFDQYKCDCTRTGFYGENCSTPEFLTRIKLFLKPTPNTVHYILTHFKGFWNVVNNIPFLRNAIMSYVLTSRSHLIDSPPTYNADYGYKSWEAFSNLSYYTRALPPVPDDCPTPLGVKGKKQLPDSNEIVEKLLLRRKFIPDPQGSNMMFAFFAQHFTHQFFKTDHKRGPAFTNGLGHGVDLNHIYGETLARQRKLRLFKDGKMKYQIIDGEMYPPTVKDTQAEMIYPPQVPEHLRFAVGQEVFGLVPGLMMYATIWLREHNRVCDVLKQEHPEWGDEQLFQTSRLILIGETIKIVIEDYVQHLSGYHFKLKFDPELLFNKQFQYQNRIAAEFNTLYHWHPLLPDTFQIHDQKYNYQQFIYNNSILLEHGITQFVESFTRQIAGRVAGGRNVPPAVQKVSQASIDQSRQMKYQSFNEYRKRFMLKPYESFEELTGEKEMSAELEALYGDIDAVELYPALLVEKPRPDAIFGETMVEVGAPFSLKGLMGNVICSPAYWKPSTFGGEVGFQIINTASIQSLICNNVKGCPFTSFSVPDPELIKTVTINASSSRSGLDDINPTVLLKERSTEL
Assay read-out pIC50 on Prostaglandin G/H synthase 2 (Homo sapiens, UniProt P35354); records merged from the literature.
Conceptually, pIC50 converts a concentration in mol/L into minus its log10.

Query: Report pIC50 for COCCNC(=O)c1ccccc1Nc1c(Cl)ccc(C)c1Cl tested on Prostaglandin G/H synthase 2 (Homo sapiens, UniProt P35354).
Result: 5.52

Query: Please tell me: pIC50 of COc1ccc([C@H]2C(Cn3c4ccccc4c4ccccc43)=NO[C@@H]3CCCC[C@H]23)cc1 , system Prostaglandin G/H synthase 2 (Homo sapiens, UniProt P35354)?
Result: 5.23

Query: Checklist item: pIC50 tested on Prostaglandin G/H synthase 2 (Homo sapiens, UniProt P35354), entry Cc1cccc(-c2cc(COC(=O)COc3cc(O)c4c(=O)cc(-c5ccccc5)oc4c3)nn2-c2ccc(Cl)cc2)c1 , value?
Result: 5.75

Query: Missing value: pIC50, Prostaglandin G/H synthase 2 (Homo sapiens, UniProt P35354), entry CCOC(=O)CC(=O)Nc1[nH]nc(N)c1/N=N/c1ccc(O)cc1 . Fill in?
Result: 3.90

Query: Provide the documented pIC50 with Prostaglandin G/H synthase 2 (Homo sapiens, UniProt P35354) as the system for CCOc1cc(OCC)cc(-c2ccc(C(C)C(=O)O)cc2)c1 (stereo not given)
Result: 6.49

Query: State its pIC50 on Prostaglandin G/H synthase 2 (Homo sapiens, UniProt P35354): COc1ccc(-c2cc(C(=O)NCCN3CCOCC3)nn2-c2ccc(S(N)(=O)=O)cc2)cc1
Result: 6.06

Query: Request: pIC50, test system Prostaglandin G/H synthase 2 (Homo sapiens, UniProt P35354), entry CS(=O)(=O)c1ccc(-c2sc(CCCc3ccccc3)nc2-c2ccc(F)cc2)cc1
Result: 6.28

Query: Form field - read-out: pIC50; system: Prostaglandin G/H synthase 2 (Homo sapiens, UniProt P35354); submitted item: Cc1ccc(Nc2ccccc2C(=O)NCCc2c[nH]c3ccccc23)cn1
Result: 4.71

* * *

# pIC50 against Prostaglandin G/H synthase 2 (Homo sapiens, UniProt P35354), merged from multiple literature sources
Would you please state pIC50, meaning minus log10 of the concentration in mol/L, as a bare number?

Query: Notebook entry, Prostaglandin G/H synthase 2 (Homo sapiens, UniProt P35354) assay: pIC50 of CC(C)[C@@H]1CC[C@]2(C)[C@@H]3C(C=C4[C@@H]5CC(C)(C)CC[C@]5(C)CC[C@]42C)OC(=O)CC[C@]31C (stereo not given in full) = ?
Result: 3.19

Query: What value of pIC50 on Prostaglandin G/H synthase 2 (Homo sapiens, UniProt P35354) does CS(=O)(=O)c1ccc(-c2conc2-c2ccc(F)cc2)cc1 have?
Result: 7.24

Query: Param readout = pIC50; param system = Prostaglandin G/H synthase 2 (Homo sapiens, UniProt P35354); param query = CC(C)Cc1ccc(-c2cc(Cl)cc3c2OC(C(F)(F)F)C(C(=O)O)=C3)cc1 (stereo not given) ; response: value
Result: 4.87

Query: # returns recorded pIC50 (system: Prostaglandin G/H synthase 2 (Homo sapiens, UniProt P35354)) for CCN(CC)C(=O)Cc1c(C)n(C(=O)c2ccc(Cl)cc2)c2ccc(OC)cc12
Result: 4.60

Query: # query: pIC50 | item CCCC/C(=C(\c1ccccc1)c1ccc(NS(C)(=O)=O)cc1)c1ccccc1 | system: Prostaglandin G/H synthase 2 (Homo sapiens, UniProt P35354)
Result: 6.49

Query: # value lookup — system Prostaglandin G/H synthase 2 (Homo sapiens, UniProt P35354), readout pIC50, item CS(=O)(=O)Nc1ccncc1Nc1cccc(Cl)c1
Result: 6.14

Query: What value of pIC50 on Prostaglandin G/H synthase 2 (Homo sapiens, UniProt P35354) does CS(=O)(=O)c1ccc(-c2nc(-c3ccccc3)sc2-c2ccc(F)cc2)cc1 have?
Result: 6.27

Query: Value wanted: pIC50 (Prostaglandin G/H synthase 2 (Homo sapiens, UniProt P35354)) of entry CS(=O)(=O)c1ccc(-c2cc(S(C)(=O)=O)sc2-c2ccc(F)cc2)cc1
Result: 3.70
